Tested on: DBA/2 mice, P1534 leukemia ip, survival T/C
Test: NCI In Vivo Anticancer Drug Screen. Data for tumor model P1534 Leukemia (intraperitoneal) in DBA/2 mice
Conditions: endpoint: mean survival time; dose: 32.0 mg/kg/injection; schedule: Q01DX010 (ip); vehicle: saline
Toxic doses and inconclusive results are not listed. Rule for the calls: active = survival T/C of 150% or more; inactive = T/C below 125% in these data.
Lab note: assign the record to one of t = active, f = inactive

Reference set, count: 2
{"SMILES": "CCCCn1cnc2c(=S)nc[nH]c21", "LABEL VALUE": "f"}
{"SMILES": "NCCCCCCNC(=O)CCCCC(=O)NCCCCCCN", "LABEL VALUE": "f"}

For this compound, state the assay outcome: `O=C(Nc1ccc(C2=NCCN2)cc1)c1cccc(C(=O)Nc2ccc(C3=NCCN3)cc2)c1`
t

For this compound, state the assay outcome: `CCNNC(=O)[C@@H]1[C@H](c2cc(OC)c(OC)c(OC)c2)c2cc3c(cc2[C@H](O)[C@H]1CO)OCO3`
f
